Listed next: entries and their corresponding LC50 (concentration for 50% cell killing).
- System: A-549
- ASSAY_OVERVIEW: Inhibition of cells growth by colorimetric assay (SRB), A-549
- Format: cell-based
- ASSAY_CONDITIONS: Homo sapiens, A549, 48 h, read-out: LC50 A-549, A-549; SRB, 48 hours exposure
The answer should read as a number with its unit following.

[
  {
    "MOLECULE": "C=COC(=O)Oc1cc2c(cc1OC)[C@@]1(CS[C@@H]3c4c(OC(C)=O)c(C)c5c(c4[C@H](COC1=O)N1C3[C@H]3c4c(cc(C)c(OC)c4OC(=O)OC=C)C[C@@H]([C@@H]1C#N)N3C)OCO5)N(C(=O)OC=C)CC2 (some centres unmarked)",
    "READING": "1.02 µM"
  }
]

// recorded LC50 (concentration for 50% cell killing) for COc1cc2c(cc1OC(=O)c1cc3ccccc3oc1=O)CCN[C@]21CS[C@@H]2c3c(OC(C)=O)c(C)c4c(c3[C@H](COC1=O)N1C2[C@H]2c3c(cc(C)c(OC)c3O)C[C@@H]([C@@H]1O)N2C)OCO4 (some centres unmarked) : 0.00907 µM
